System: glycogen synthase
Assay: Glycogen Synthase (GS) Assay
Type: biochemical
Details: compound concentration needed to give 50% maximum activation
Protocol: Twelve μl per well of substrate solution containing glycogen (4.32 mg/ml), 2.67 mM UDP-glucose, 21.6 mM phospho(enol)pyruvate and 2.7 mM NADH in 30 mM glycylglycine, pH 7.3 buffer was added into a polystyrene 384-well assay plate (BD Biosciences). […] The enzyme activity (with or without compound) was calculated by the reaction rate and represented by the optical density change (μOD) per minute. […]
ASSAY READOUT: EC50 (nM)
Numeric only. Scale: nM

Quote glycogen synthase EC50 for entry "COc1cc(F)c(F)cc1-c1ccc(OCc2ccc3onc(N(CC(=O)O)CC4CCOCC4)c3c2)cc1" . 713

Quote glycogen synthase EC50 for entry "COc1cc(F)c(F)cc1-c1ccc(OCc2ccc3onc(OCC(=O)O)c3c2)cc1" . 1350

Quote glycogen synthase EC50 for entry "Oc1noc2c(COc3ccc(-c4cc(F)c(F)cc4Cl)cc3)cccc12" . 702

Quote glycogen synthase EC50 for entry "COCCCN(CC(=O)O)c1noc2ccc(COc3ccc(-c4cc(F)c(F)cc4OC)cc3)cc12" . 514

Quote glycogen synthase EC50 for entry "Oc1noc2c(COc3ccc(-c4cc(F)c(F)cc4F)cc3)cccc12" . 836

Further cases:
Quote glycogen synthase EC50 for entry COc1cc(F)c(F)cc1-c1ccc(OCc2ccc3onc(OC(C(=O)O)c4ccccc4)c3c2)cc1 (centres unmarked) . 1760

Quote glycogen synthase EC50 for entry "COc1cc(F)c(F)cc1-c1ccc(OCc2ccc3onc(N(CC(=O)O)CC4CC4)c3c2)cc1" . 1160

Quote glycogen synthase EC50 for entry "COc1cc(F)c(F)cc1-c1ccc(OCc2ccc3onc(O)c3c2)cc1" . 172

Source of measurements: patent US20110112158A1
